Where do these numbers come from? They come from patent US10112929B2.

- study-target: ROCK2 (Homo sapiens (Human), UniProt O75116);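 note: rho kinase enzyme reaction halted with EDTA, phospho- and non-phospho peptide separated for read-out, kinase activity inhibition derived across a dose-response series, DMSO under 2%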
- Sequence (O75116 whole entry, species assumed): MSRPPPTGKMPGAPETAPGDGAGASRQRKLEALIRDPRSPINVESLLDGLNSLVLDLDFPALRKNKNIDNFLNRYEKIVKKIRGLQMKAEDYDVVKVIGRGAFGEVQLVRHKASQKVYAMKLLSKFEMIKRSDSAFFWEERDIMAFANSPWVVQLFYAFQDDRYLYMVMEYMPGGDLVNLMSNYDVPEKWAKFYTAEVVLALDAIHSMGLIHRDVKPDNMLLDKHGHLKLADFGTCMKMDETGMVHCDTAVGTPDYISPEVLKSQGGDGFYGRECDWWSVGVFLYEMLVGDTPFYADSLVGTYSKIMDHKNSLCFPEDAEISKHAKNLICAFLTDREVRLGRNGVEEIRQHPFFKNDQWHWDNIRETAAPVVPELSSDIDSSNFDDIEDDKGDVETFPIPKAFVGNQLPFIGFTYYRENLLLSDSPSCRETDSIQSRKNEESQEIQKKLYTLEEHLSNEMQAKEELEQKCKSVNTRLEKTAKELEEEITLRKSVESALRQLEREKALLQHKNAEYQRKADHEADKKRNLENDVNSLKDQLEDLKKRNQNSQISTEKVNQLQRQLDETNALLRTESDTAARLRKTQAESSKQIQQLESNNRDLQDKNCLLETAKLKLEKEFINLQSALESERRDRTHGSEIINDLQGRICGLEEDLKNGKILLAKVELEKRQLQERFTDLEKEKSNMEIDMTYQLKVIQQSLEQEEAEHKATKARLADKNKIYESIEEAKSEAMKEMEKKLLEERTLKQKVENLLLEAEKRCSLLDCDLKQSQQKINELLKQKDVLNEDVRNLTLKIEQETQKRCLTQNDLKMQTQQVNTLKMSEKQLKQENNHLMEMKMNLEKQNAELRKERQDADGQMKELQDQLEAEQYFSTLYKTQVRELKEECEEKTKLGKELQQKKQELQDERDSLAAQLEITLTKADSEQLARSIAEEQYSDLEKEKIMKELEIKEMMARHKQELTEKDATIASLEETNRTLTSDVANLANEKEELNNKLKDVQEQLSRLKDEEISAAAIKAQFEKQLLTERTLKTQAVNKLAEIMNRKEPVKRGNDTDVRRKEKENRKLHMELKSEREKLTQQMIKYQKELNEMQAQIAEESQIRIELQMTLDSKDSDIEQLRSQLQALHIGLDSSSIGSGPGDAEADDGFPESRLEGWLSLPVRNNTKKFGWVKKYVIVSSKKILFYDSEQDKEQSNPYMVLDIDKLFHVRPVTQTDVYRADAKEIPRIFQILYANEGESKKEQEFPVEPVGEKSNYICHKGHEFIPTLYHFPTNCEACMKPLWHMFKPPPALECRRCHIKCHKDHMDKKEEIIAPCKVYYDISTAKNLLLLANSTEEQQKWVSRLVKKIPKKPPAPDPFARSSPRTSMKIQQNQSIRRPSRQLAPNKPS
- experiment-notes: biochemical
result-type: IC50

Answered examples (6):
# lookup: ROCK2 (Homo sapiens (Human), UniProt O75116) IC50, key = COc1cccc(NC2CCN(c3ccc(-c4cn[nH]c4)cc3Cl)C2=O)c1 (single isomer, unassigned) 100 to 2200 nM

Quote ROCK2 (Homo sapiens (Human), UniProt O75116) IC50 for entry COc1cc(F)cc(NC2CCN(c3ccc(-c4cn[nH]c4)cc3)C2=O)c1 (stereo not shown) [Example 3] . < 10 nM

Print ROCK2 (Homo sapiens (Human), UniProt O75116) IC50 for COc1cc(N2CCC(Nc3cccc(OC(F)F)c3)C2=O)ccc1-c1cn[nH]c1 (stereo not shown) [Example 66] . < 10 nM

Send back ROCK2 (Homo sapiens (Human), UniProt O75116) IC50 of COc1ccc2c(c1)CCN2C1CCN(c2ccc(-c3cn[nH]c3)cc2)C1=O (single isomer, unassigned) only. 10 to 100 nM

Quote IC50 with test system ROCK2 (Homo sapiens (Human), UniProt O75116) for CCc1nc(N2CCC(Nc3ccc(F)c(OC)c3)C2=O)ccc1-c1cn[nH]c1 (single isomer, unassigned) [Example 317] < 10 nM

Report its IC50 with ROCK2 (Homo sapiens (Human), UniProt O75116) as the test system: COc1cccc(NC2CCN(c3ccc(-c4cn[nH]c4)c(OC)c3)C2=O)c1 (single isomer, unassigned) [Example 74] < 10 nM

Further cases:
GET IC50 | system: ROCK2 (Homo sapiens (Human), UniProt O75116) | item: COc1cc(F)cc(NC2CCN(c3ccc(-c4cn[nH]c4)cc3Cl)C2=O)c1 (single isomer, unassigned) 100 to 2200 nM
